Where do these numbers come from? They come from patent US9464082B2.

IC50 values by entry
# Tested on: IFNγ-Induced NO Production
# assay.comment: Nitric Oxide Suppression Assay (Suppression of IFNγ-Induced NO Production)
# Assay type: cell-based
# experimental.parameters: RAW264.7; RAW 264.7 mouse macrophage cells; 2 hour pre-treatment with compound (3 μM to 0.3 nM, 10 point curve); 20 ng/mL interferon gamma, ~18 hour; Griess detection; n=2-3 in duplicates
# unit: nM | format: bare number

Solved entries:
# compound, tgt, IC50 (nM)
rows = [
    ("C[C@@H]1C(=O)C(C(N)=O)=C[C@]2(c3ccccc3)c3ncncc3CC[C@@H]12 [Example 131]", "IFNγ-Induced NO Production", 1390),
    ("C[C@@H]1C(=O)C(C#N)=C[C@]2(c3ccccc3)c3nn(C)c(-c4ccc(-c5cncnc5)cc4)c3CC[C@@H]12 [Example 144]", "IFNγ-Induced NO Production", 18.1),
    ("Cc1nc(-c2cncnc2)c2c(n1)[C@@]1(c3cccc(F)c3)C=C(C#N)C(=O)[C@@H](C)[C@@H]1CC2 [Example 69]", "IFNγ-Induced NO Production", 35.8),
]

Field: next compound
Query: Record C[C@@H]1C(=O)C(C#N)=C[C@]2(c3ccccc3)c3n[nH]c(-c4cnn(CCO)c4)c3CC[C@@H]12 [Example 117] : what is its IC50 with IFNγ-Induced NO Production?
Reply: 17.4

* * *

# Tested on: IFNγ-Induced NO Production
# assay.comment: Nitric Oxide Suppression Assay (Suppression of IFNγ-Induced NO Production)
# Type: cell-based
# experimental.parameters: RAW264.7; RAW 264.7 mouse macrophage cells; 2 hour pre-treatment with compound (3 μM to 0.3 nM, 10 point curve); 20 ng/mL interferon gamma, ~18 hour; Griess detection; n=2-3 in duplicates
outcome.measure: pIC50
The quantity pIC50 is defined as the negative base-10 logarithm of the molar concentration.

Illustrative cases are given below, each with its answer.
# compound, pIC50
measured = [
    ("C[C@@H]1C(=O)C(C#N)=C[C@]2(c3ccccc3)c3n[nH]c(-c4cccc(O)c4)c3CC[C@@H]12", 7.70),
    ("COC(=O)c1cccc([C@]23C=C(C#N)C(=O)[C@@H](C)[C@@H]2CCc2c[nH]nc23)c1", 7.40),
    ("Cc1nc(-c2cnn(CCO)c2)c2c(n1)[C@@]1(c3ccccc3)C=C(C#N)C(=O)[C@@H](C)[C@@H]1CC2", 8.64),
    ("C[C@@H]1C(=O)C(C#N)=C[C@]2(c3ccccc3)c3n[nH]c(-c4cnn(C)c4)c3CC[C@@H]12", 8.09),
    ("C[C@@H]1C(=O)C(C#N)=C[C@]2(Cc3ccccc3)c3c(cnn3C)CC[C@@H]12 (racemic)", 6.39),
    ("C[C@@H]1C(=O)C(C#N)=C[C@]2(c3ccccc3)c3nc(N4CCOCC4)ncc3CC[C@@H]12", 7.44),
]

Query: Item under review: COc1nc(-c2ccccc2)nc2c1CC[C@H]1[C@H](C)C(=O)C(C#N)=C[C@]21c1ccccc1 (racemic) . Reported pIC50?
Reply: 7.02

Query: Lookup C[C@@H]1C(=O)C(C#N)=C[C@]2(c3ccc(C(=O)O)cc3)c3ncncc3CC[C@@H]12
Reply: 6.09

* * *

Each entry below lists one item and its recorded pIC50 value.
# System: IFNγ-Induced NO Production
# assay.comment: Nitric Oxide Suppression Assay (Suppression of IFNγ-Induced NO Production)
# Assay type: cell-based
# experimental.parameters: RAW264.7; RAW 264.7 mouse macrophage cells; 2 hour pre-treatment with compound (3 μM to 0.3 nM, 10 point curve); 20 ng/mL interferon gamma, ~18 hour; Griess detection; n=2-3 in duplicates
Keep it numeric: pIC50 is minus log10 of the concentration in mol/L.

Some compounds with recorded pIC50:
# smiles.entry, pIC50
rows = [
    ("COC(=O)c1ccc(-c2ncc3c(n2)[C@@]2(c4ccccc4)C=C(C#N)C(=O)[C@@H](C)[C@@H]2CC3)cc1", 7.90),
    ("C[C@@H]1C(=O)C(C#N)=C[C@]2(c3ccccc3)c3nc(-c4ccncc4)ncc3CC[C@@H]12", 8.20),
    ("Cc1nc(-c2cccc(CCO)c2)c2c(n1)[C@@]1(c3ccccc3)C=C(C#N)C(=O)[C@@H](C)[C@@H]1CC2", 7.73),
]

Query: Recorded pIC50 of COC(=O)c1ccc([C@]23C=C(C#N)C(=O)[C@@H](C)[C@@H]2CCc2cncnc23)cc1 , please.
Reply: 7.96
